Target Entity: CpLIP2 lipase (Candida parapsilosis, UniProt Q8NIN8)
Sequence (Q8NIN8 entry or part of it): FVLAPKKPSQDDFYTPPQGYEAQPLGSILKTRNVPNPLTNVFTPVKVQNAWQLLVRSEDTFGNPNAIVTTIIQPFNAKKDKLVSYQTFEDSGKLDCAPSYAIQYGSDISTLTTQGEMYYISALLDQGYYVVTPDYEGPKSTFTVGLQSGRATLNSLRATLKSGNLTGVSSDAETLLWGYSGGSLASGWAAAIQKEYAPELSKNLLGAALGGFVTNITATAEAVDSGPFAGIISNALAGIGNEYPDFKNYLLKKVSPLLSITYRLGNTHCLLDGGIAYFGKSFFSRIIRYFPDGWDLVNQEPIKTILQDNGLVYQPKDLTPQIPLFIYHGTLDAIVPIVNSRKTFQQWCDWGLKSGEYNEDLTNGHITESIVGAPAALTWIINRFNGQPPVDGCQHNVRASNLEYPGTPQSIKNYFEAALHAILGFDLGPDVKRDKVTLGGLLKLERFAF
Assay: Quenching of CpLIP2 intrinsic tryptophan fluorescence by flavonols (Stern–Volmer, Lehrer, van't Hoff analysis)
Format: binding
Assay Context: 318 K
Measured Quantity: n (number of binding sites)

Past entries and their recorded results:
INSERT INTO assay_data (structure_smiles_string, measured_quantity, result) VALUES
  ('O=c1c(O)c(-c2ccc(O)cc2)oc2cc(O)cc(O)c12', 'n (number of binding sites)', '0.69 ± 0.09'),
  ('O=c1c(O)c(-c2ccccc2)oc2cc(O)cc(O)c12', 'n (number of binding sites)', '0.66 ± 0.21'),
  ('O=c1c(O)c(-c2cc(O)c(O)c(O)c2)oc2cc(O)cc(O)c12', 'n (number of binding sites)', '0.44 ± 0.02');

Now take the following compound into account.
# get_value(readout='n (number of binding sites)', item= O=c1c(O)c(-c2ccc(O)c(O)c2)oc2cc(O)cc(O)c12 ) 0.81 ± 0.07
